system: T47D pAKT (S473), PI3Kα H1047R mutation present; experiment: HTRF pAKT-T47D; conditions: read-out: T47D pAKT IC50; T47D.1 cells, pAKT (S473) HTRF, 1 hour;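 also: assay medium was RPMI with 10% FBS and 0.2 units/ml bovine insulin, without phenol red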
Measured IC50 values are reported for all entries that follow.

compound: Cc1c(C(NC(=O)Nc2ccc(N3CC(O)C3)nc2)C(F)(F)F)oc2c(F)cc(F)cc12 (racemic) [Compound 180]
reportedValue: < 1 µM

IC50 on T47D pAKT (S473), PI3Kα H1047R mutation present for Cc1c(C(NC(=O)Nc2cnc(N)nc2)C(F)(F)F)oc2c(C3CC3)cc(F)cc12 (single isomer, unassigned) [Compound 218] is < 1 µM

IC50 on T47D pAKT (S473), PI3Kα H1047R mutation present for Cc1c(C(NC(=O)Nc2ccc(N)cc2)C(F)(F)F)oc2c(F)cc(F)cc12 (single isomer, unassigned) is < 1 µM
